measuredTarget: sEGFR-MMB (human)
Sequence (chain, as listed by the source limits assumed): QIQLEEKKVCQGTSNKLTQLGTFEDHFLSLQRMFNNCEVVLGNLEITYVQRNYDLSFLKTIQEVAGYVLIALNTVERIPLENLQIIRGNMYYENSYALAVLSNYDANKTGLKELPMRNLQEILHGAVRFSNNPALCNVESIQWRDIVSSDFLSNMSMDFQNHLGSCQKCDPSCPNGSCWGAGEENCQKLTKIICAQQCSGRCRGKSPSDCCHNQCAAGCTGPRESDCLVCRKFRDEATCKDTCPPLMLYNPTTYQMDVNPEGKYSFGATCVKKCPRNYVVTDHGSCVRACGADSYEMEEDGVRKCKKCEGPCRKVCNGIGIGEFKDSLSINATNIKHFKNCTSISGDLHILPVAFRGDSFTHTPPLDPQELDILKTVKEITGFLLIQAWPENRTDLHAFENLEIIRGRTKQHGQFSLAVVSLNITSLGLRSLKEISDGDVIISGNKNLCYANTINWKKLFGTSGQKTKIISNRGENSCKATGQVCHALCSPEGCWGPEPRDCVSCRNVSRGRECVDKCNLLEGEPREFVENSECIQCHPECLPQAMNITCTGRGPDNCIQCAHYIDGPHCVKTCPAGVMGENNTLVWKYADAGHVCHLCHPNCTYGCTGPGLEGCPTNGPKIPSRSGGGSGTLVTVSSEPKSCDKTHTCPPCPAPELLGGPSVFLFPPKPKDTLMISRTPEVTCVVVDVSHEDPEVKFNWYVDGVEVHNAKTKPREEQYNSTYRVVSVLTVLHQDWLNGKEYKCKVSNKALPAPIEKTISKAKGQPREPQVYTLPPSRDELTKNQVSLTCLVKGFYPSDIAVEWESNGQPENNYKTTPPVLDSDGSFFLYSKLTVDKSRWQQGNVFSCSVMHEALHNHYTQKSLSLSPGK
procedureSummary: phage ELISA on coated sEGFR-MMB, chemiluminescence (background typically <200 units)

binder | ELISA / units
CDCREAVSASLVCRY [S19 library phage peptide of SEQ ID NO: 41] | 3350
MICYLVDSGNIICYK [P180] | 8810
YDCMIRADGSLICWC [S19 library phage peptide of SEQ ID NO: 38] | 1290
AFCRLDFNQWLTCLV [S19 library phage peptide of SEQ ID NO: 40] | 2580
GPCVLIRDYYLLCLE [P179] | 14000

Data provenance: patent US8278415B2
